Recorded TGI values for a group of compounds are listed next.
- Tested on: SK-MEL-28 melanoma
- protocol-text: NCI tumour cell line growth inhibition, 48 h
Where a SMILES comes first, the peptide text is derived from it. Bridges are numbered along the chain shown (N, C = ends).

Examples from the recorded data:
INSERT INTO results (compound, result) VALUES
  ('CCC(C)C1NC(=O)C(CC(C)C)NC(=O)C(C(C)C)NC(=O)C2CSSCC(NC1=O)C(=O)N2 (stereo not given) (cyclo(CCVLI); disulfide 1-2; configuration not given here)', '0.269 µM'),
  ('Cc1cc(C(=O)CC(Cl)=C(Cl)Cl)c(Cl)cc1Cl', '> 100 µM'),
  ('O=[N+]([O-])c1ccc(C2NC(=S)NC3c4cc([N+](=O)[O-])ccc4CCCC23)cc1 (stereo not given)', '> 100 µM'),
  ('Oc1ccccc1/C=N\Nc1ccccc1', '> 100 µM');

[in] Please look up its TGI: O=C(O)CC(S)C(=O)O.[Li+].[Sb] (stereo not given)
[out] > 100 µM

[in] Please look up its TGI: Cl.[O-]c1cccc2cccnc12.[O-]c1cccc2cccnc12.[O-]c1cccc2cccnc12.[O-]c1cccc2cccnc12.[Ti+4]
[out] > 35.4 µM

[in] Please look up its TGI: CN(CCCNC(=O)c1cn(C)c2c1ccc1ccccc12)CCCNC(=O)c1cn(C)c2c1ccc1ccccc12
[out] 3.67 µM

[in] Please look up its TGI: CC(=O)C(C(=O)C(=O)Nc1cc(Cl)c(Cl)cc1Cl)c1csc(N)n1 (stereo not given)
[out] > 100 µM

[in] Please look up its TGI: CC(=O)c1ccc(Nc2nc3ccccc3c3occc23)cc1
[out] 15.9 µM

[in] Please look up its TGI: CCOC(=O)c1c(Br)c(-c2ccc([N+](=O)[O-])cc2)c(Br)n1C
[out] > 10 µM

This collection of values is drawn from PubChem BioAssay (NCI).
